test system: mouse carcinogenicity bioassay, TD50 from CPDB; experiment: DSSTox (CPDBAS) Carcinogenic Potency Database Summary Mouse Bioassay Results; settings: TargetSites_Mouse_Female: uterus
value kind: Potency

CCBr; 4.91 mmol/kg/day

# get_value(readout= Potency, system= mouse carcinogenicity bioassay, TD50 from CPDB) for CCCl 28.1 mmol/kg/day

# get_value(readout= Potency, system= mouse carcinogenicity bioassay, TD50 from CPDB) for COP(=O)(OC)OC 2.39 mmol/kg/day

* * *

system: mouse carcinogenicity bioassay, TD50 from CPDB; assay: DSSTox (CPDBAS) Carcinogenic Potency Database Summary Mouse Bioassay Results; settings: TargetSites_Mouse_Female: liver
# key: entry, value: Potency

A selection of reference data follows.
ClC(Br)Br; 0.667 mmol/kg/day
Nc1ccc(Cc2ccc(N)c(Cl)c2)cc1Cl; 0.196 mmol/kg/day
COc1cc(N=Nc2ccccc2)ccc1N; 0.265 mmol/kg/day
O=C/C=C/O; 0.15 mmol/kg/day

# get_value(readout= Potency, system= mouse carcinogenicity bioassay, TD50 from CPDB) for Cc1cccc(Nc2cc(Cl)nc(SCC(=O)NCCO)n2)c1C 0.122 mmol/kg/day

# get_value(readout= Potency, system= mouse carcinogenicity bioassay, TD50 from CPDB) for CCCC[C@H](C)[C@@H](OC(=O)C[C@H](CC(=O)O)C(=O)O)[C@@H](C[C@H](C)C[C@@H](O)CCCC[C@@H](O)C[C@H](O)[C@H](C)N)OC(=O)C[C@H](CC(=O)O)C(=O)O 0.00941 mmol/kg/day

# get_value(readout= Potency, system= mouse carcinogenicity bioassay, TD50 from CPDB) for C=CCc1ccc(OC)cc1 0.35 mmol/kg/day

# get_value(readout= Potency, system= mouse carcinogenicity bioassay, TD50 from CPDB) for Cc1ccc2c(c1N)C(=O)c1ccccc1C2=O 0.733 mmol/kg/day

# get_value(readout= Potency, system= mouse carcinogenicity bioassay, TD50 from CPDB) for NC(=O)Cc1c([O-])on[n+]1Cc1ccccc1 0.0437 mmol/kg/day

# get_value(readout= Potency, system= mouse carcinogenicity bioassay, TD50 from CPDB) for Cc1cc(C)c(N)cc1C 0.0453 mmol/kg/day

# get_value(readout= Potency, system= mouse carcinogenicity bioassay, TD50 from CPDB) for C1CCOC1 18 mmol/kg/day

# get_value(readout= Potency, system= mouse carcinogenicity bioassay, TD50 from CPDB) for Nc1ccc(N=Nc2ccccc2)c(N)n1 0.285 mmol/kg/day

# get_value(readout= Potency, system= mouse carcinogenicity bioassay, TD50 from CPDB) for CCCCC(CC)COP(=O)(OCC(CC)CCCC)OCC(CC)CCCC (stereo not drawn) 5.89 mmol/kg/day

* * *

test system: mouse carcinogenicity bioassay, TD50 from CPDB; test: DSSTox (CPDBAS) Carcinogenic Potency Database Summary Mouse Bioassay Results; details: TD50_Mouse_Note: TD50 is harmonic mean of more than one positive test; TargetSites_Mouse_Female: hematopoietic system; liver; thyroid gland
value kind: Potency

Which Potency is reported for this molecule? Nc1ccc(Cc2ccc(N)cc2)cc1 0.119 mmol/kg/day

* * *

# key: entry, value: Potency
test system: mouse carcinogenicity bioassay, TD50 from CPDB; assay: DSSTox (CPDBAS) Carcinogenic Potency Database Summary Mouse Bioassay Results; details: TD50_Mouse_Note: TD50 is harmonic mean of more than one positive test; TargetSites_Mouse_Female: hematopoietic system; stomach

Nc1nc(/C=C/c2ccc([N+](=O)[O-])o2)no1; 0.504 mmol/kg/day

Which Potency is reported for this molecule? O=P(OCCCl)(OCCCl)OCCCl 3.39 mmol/kg/day

Which Potency is reported for this molecule? O=CNNc1nc(-c2ccc([N+](=O)[O-])o2)cs1 0.0425 mmol/kg/day
